TEST_PROTOCOL: NCI Yeast Anticancer Drug Screen. Data for the bub3 strain (AID 167)
CONDITION_NOTES: S. cerevisiae bub3 mutant strain, at 50.0 µM, active compounds read high
The panel holds about 79,000 compounds, 15% with a hit somewhere; the sample as a whole holds those more often.
QUANTITY_MEASURED: growth inhibition (%)

>>> recorded_measurement("C/C(=N\\NC(=S)N1CCCC1)c1ccc[nH]1")
-7.75
>>> recorded_measurement("CC(=O)Nc1ncc2ccccc2c1-c1ccc(NC(=O)CCCl)cc1")
3.6
>>> recorded_measurement("CC(NC(=O)C(N)CCC(=O)O)C(=O)NCP(=O)(O)O (centres undefined)")
4.25
>>> recorded_measurement("NC(=N\\C1=NCCN1)/C(N)=N/C1=NCCN1")
-2.3
>>> recorded_measurement("CCCCCCC(CC)C(N)=O (centres undefined)")
-8.15
>>> recorded_measurement("CCN(CC)CCC(C(=O)O)(c1ccccc1)C1(O)CCCC1 (centres undefined)")
7.1
>>> recorded_measurement("CCOC(=O)CCC(C(=O)OCC)N1C(=O)c2ccccc2C1=O (centres undefined)")
23.8
>>> recorded_measurement("COc1cccc(Nc2nc(N)nc(N)c2N)c1")
-19.6
>>> recorded_measurement("COC1(OC)N=C(N)C2(C#N)C(C)CC(=O)N(N(C)C)C12C#N (centres undefined)")
-37.4
>>> recorded_measurement("COc1cc(C(=O)O)c(O)c(OC)c1OC")
-13
>>> recorded_measurement("COc1ccc(C2OC3=C(Nc4ccc(Cl)cc4N3)C2=O)cc1 (centres undefined)")
-9.3
>>> recorded_measurement("COc1c(O)c(O)c2c(c1O)C(=O)c1cc(C)cc(O)c1C2=O")
-30
>>> recorded_measurement("[Cu+2].[NH-]C(Cc1ccc(O)cc1)C(=O)O.[NH-]C(Cc1ccc(O)cc1)C(=O)O (centres undefined)")
1.65
>>> recorded_measurement("CCCC(NC(C)=O)C(=O)O (centres undefined)")
1.15
>>> recorded_measurement("O=C(O)CNCc1ccc(F)cc1")
13.2
>>> recorded_measurement("Cc1cccc(C)c1NC(=O)C(Cl)Cl")
-12
>>> recorded_measurement("CN(C)c1ccccc1C1CCCCCC1O (centres undefined)")
-22.3
>>> recorded_measurement("CCOC(=O)CCC1(C(=O)OC)C(=O)CCCCCCCC1C(=O)OC (centres undefined)")
19.4
>>> recorded_measurement("CCOC(=O)C(c1ccccc1)N(CCCN(CC)CC)c1ccccc1 (centres undefined)")
5.15
>>> recorded_measurement("CNC(=O)OCCCCCCCCCCOC(=O)NC")
-17.9
>>> recorded_measurement("C=C/C=N/Nc1ccc([N+](=O)[O-])cc1[N+](=O)[O-]")
2.4
>>> recorded_measurement("O=C(Nc1cccc(C(=O)NCCCO)c1)/C(=C/c1ccccc1)NC(=O)c1ccccc1")
-2.4
>>> recorded_measurement("Cc1ccc(-c2cc(=S)n(-c3ccccc3)c3nc(=S)n(-c4ccccc4)c(N)c23)cc1")
23.8
>>> recorded_measurement("Cn1c(O)c(C=Nc2ccccc2Cl)c(=O)n(C)c1=O")
0.55
>>> recorded_measurement("CCCCCCOC(=O)C(O)C(C)(Cl)c1ccccc1 (centres undefined)")
12.6
>>> recorded_measurement("O=c1ccc(-c2ccccc2)n[nH]1")
-25.8
>>> recorded_measurement("C=CCOC(=O)C(C)OC(=O)OCC (centres undefined)")
-2.1
>>> recorded_measurement("CCOC(=O)c1ccccc1Nc1c(C(=O)OCC)cnc2cc3c(cc12)OCO3")
-0.25
>>> recorded_measurement("O=C(Oc1cccc2ccccc12)c1ccccc1")
6.25
>>> recorded_measurement("COc1ccc(-n2[nH]nc(C(N)=O)c2=O)cc1")
-24.6
>>> recorded_measurement("CCCCCCCCCCCCSC1=CC(=O)C(SCCCCCCCCCCCC)=CC1=O")
-4.5
>>> recorded_measurement("OCC(O)c1ccccn1 (centres undefined)")
2.55
>>> recorded_measurement("COCC1CCCCC1O (centres undefined)")
18.1
>>> recorded_measurement("COc1ccc(NC(=O)CC(=O)N2N=C(N(CCC#N)c3ccc(Cl)cc3)CC2c2ccccc2)cc1 (centres undefined)")
2.05
>>> recorded_measurement("CN(C)c1nc(-c2ccccc2)c(Cc2ccccc2)c(=O)o1")
7.25
>>> recorded_measurement("C/C=C\\c1ccc(OCCOC(C)=O)c(OC)c1")
-9.95
>>> recorded_measurement("CC1=NN(C(=O)CC(=O)N(C(=O)c2ccccc2Cl)c2ccc(C)cc2)C(=O)C1N=Nc1ccc([N+](=O)[O-])cc1 (centres undefined)")
54.1
>>> recorded_measurement("CCC(=N\\NC(=S)NC)/C(C)=N\\NC(=S)NC")
9.1
>>> recorded_measurement("CCN(CC)CCSC(=O)c1ccc([N+](=O)[O-])cc1")
38.5
>>> recorded_measurement("COc1ccc2cc3n(cc-2c1=O)CCc1cc2c(cc1-3)OCO2")
-6.65
>>> recorded_measurement("O=c1c2ccccc2nc(-c2ccccc2)n1/N=C/c1cccnc1")
7.5
>>> recorded_measurement("NN1CCOC1=O")
-14.1
>>> recorded_measurement("COc1ccc(C(=O)N/N=C/c2ccccc2Cl)cc1")
19.4
>>> recorded_measurement("CNC(=O)OCc1c(C)oc(-c2ccc(Cl)c(Cl)c2)c1COC(=O)NC")
12.3
>>> recorded_measurement("COc1ccc(NC(=O)C(=O)Cc2ccc([N+](=O)[O-])c([N+](=O)[O-])c2CC(=O)C(=O)Nc2ccc(OC)cc2OC)c(OC)c1")
6.15
>>> recorded_measurement("CNCCC(=O)c1ccccc1")
-17.6
>>> recorded_measurement("O=C1c2ccccc2C(=O)N1OCCCCON1C(=O)c2ccccc2C1=O")
1
>>> recorded_measurement("CCOC(=O)c1cnc2n(c1=O)[C@H]1CCCC[C@@H]1N2")
8.7
>>> recorded_measurement("C=CCn1c(=O)c(C(=O)Nc2nc(C34CC5CC(CC(C5)C3)C4)cs2)c(O)c2ccccc21")
4.5

====

TEST_PROTOCOL: NCI Yeast Anticancer Drug Screen. Data for the sgs1 mgt1 strain (AID 161);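 note: 0% = growth of cultures given vehicle only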
CONDITION_NOTES: S. cerevisiae sgs1 mgt1 strain, at 50.0 µM, active compounds read high
Protocol: Growth inhibition of yeast strains with defined genetic alterations is measured as a screen for potential anti-cancer activity. Selected strains with alterations in DNA damage repair or cell cycle control were exposed to compounds and growth inhibition was measured relative to vehicle treated controls. The strain used in this assay is sgs1 mgt1
Compounds without any hit were thinned out: in the full panel of roughly 79,000, 15% have a hit.
QUANTITY_MEASURED: growth inhibition (%)

>>> recorded_measurement("Oc1ccc(O)c(CCCc2cc(O)ccc2O)c1")
-2.25
>>> recorded_measurement("O=C1c2cccc3cc([N+](=O)[O-])cc(c23)C(=O)N1CC1CCCO1 (configuration not stated)")
30.6
>>> recorded_measurement("CCOc1ccccc1C(=O)OCCCc1ccccc1")
7.1
>>> recorded_measurement("Cc1nc(C(=O)O)c2ccccc2n1")
-8.05
>>> recorded_measurement("CCOC(=O)C(NC(C)=O)C(C)O (configuration not stated)")
5.05
>>> recorded_measurement("O=C(NC1(C(=O)O)CC1c1ccccc1)c1ccccc1 (configuration not stated)")
0.05
>>> recorded_measurement("O=C1C(Cl)C(c2ccccc2O)N1n1cnc2ccccc2c1=O (configuration not stated)")
-12.5

====

TEST_PROTOCOL: NCI Yeast Anticancer Drug Screen. Data for the mlh1 rad18 strain (AID 175)
CONDITION_NOTES: S. cerevisiae mlh1 rad18 strain growth inhibition; at 50.0 µM; active compounds read high
The panel holds about 79,000 compounds, 15% with a hit somewhere; the sample as a whole holds those more often. The source made the active and inactive calls. Rule as the data show it: active = growth inhibition above about 70%; inactive = the rest.
# Lookup of reported growth inhibition keyed by entry
QUANTITY_MEASURED: growth inhibition

>>> recorded_measurement("CSCCCC(N)=O")
"3.9% (inactive)"
>>> recorded_measurement("NCCCNCCCCNC(=O)C(O)NC(=O)CC(O)CCCCN=C(N)N (centres undefined)")
"-24.1% (inactive)"
>>> recorded_measurement("CCCCCCCCCCCCSc1nc2c([nH]1)c(=O)n(C)c(=S)n2C")
"-15.2% (inactive)"
>>> recorded_measurement("O=C1Nc2ccccc2N=NN1CCCl")
"-18.4% (inactive)"
>>> recorded_measurement("COc1ccc(/C=C2\\CCC(CCN(C)C)(C3=CCCC3)C2=O)cc1 (centres undefined)")
"9.4% (inactive)"
>>> recorded_measurement("O=C(Cc1ccccc1)NS(=O)(=O)c1ccccc1")
"4.2% (inactive)"
>>> recorded_measurement("Cc1cc2c(cc1C=O)C(C)(C)CCC2")
"26.2% (inactive)"
>>> recorded_measurement("O=C(Cn1c2c(c3ccccc31)CCCC2)N1CCCC1")
"-23.7% (inactive)"
>>> recorded_measurement("CSc1nc(NC2OCC(O)C(O)C2O)cc(=O)n1C (centres undefined)")
"-2.95% (inactive)"
>>> recorded_measurement("CCCCCCC#CC(=O)O")
"30.4% (inactive)"
>>> recorded_measurement("CCCCC1(C(NC(=O)c2ccccc2Cl)c2ccncc2)C(=O)N(c2ccccc2)N(c2ccccc2)C1=O (centres undefined)")
"41.5% (inactive)"
>>> recorded_measurement("O=C(Nc1ccc(Cl)cc1)Nc1nnc2nc(C(C(=O)c3cccs3)c3nc4nnc(NC(=O)Nc5ccc(Cl)cc5)n4[nH]c3=O)c(=O)[nH]n12")
"-13.8% (inactive)"
>>> recorded_measurement("CC(=O)Nc1ccc(S(=O)(=O)Nc2c(N)[nH]c(=S)[nH]c2=O)cc1")
"9.45% (inactive)"
>>> recorded_measurement("CCCCOc1ccc(Br)cc1")
"-15.1% (inactive)"
>>> recorded_measurement("CNC(=O)NS(=O)(=O)c1cccc([N+](=O)[O-])c1")
"-17.3% (inactive)"
>>> recorded_measurement("COc1cccc(N(CCO)C2CCCCC2)c1")
"2% (inactive)"
>>> recorded_measurement("c1ccc2c3c(ccc2c1)CCC3")
"-12.4% (inactive)"
>>> recorded_measurement("Cc1c(Cl)cc(C(C)(C)C)c(O)c1Cc1c(C)c(Cl)cc(C(C)(C)C)c1O")
"1.95% (inactive)"
>>> recorded_measurement("CC1(C)CC23C(=O)N(c4ccccc4)C(=Nc4ccccc4)NC2=CC(C#N)=C(C#N)C3O1 (centres undefined)")
"-15.8% (inactive)"
>>> recorded_measurement("CC(O)CN1CNC(=S)NC1 (centres undefined)")
"-7.25% (inactive)"
>>> recorded_measurement("O=C(Nc1cccc2ccccc12)O/N=C/c1ccccn1")
"-1.7% (inactive)"
>>> recorded_measurement("c1ccc(C2=C(c3ccccn3)N=c3ccccc3=c3ccccc3=N2)nc1")
"-8.9% (inactive)"
>>> recorded_measurement("C/C(CCC1CCCCC1)=N/NC(N)=O")
"-18.4% (inactive)"
>>> recorded_measurement("CC(=O)Oc1cccn2c(C(=O)C(=O)c3ccc4c(OC(C)=O)cccn34)ccc12")
"14.7% (inactive)"

Recorded values, source PubChem BioAssay (NCI).
